Experiment: PSAC antagonists in infected red cells, primary screen, cell-based, P. falciparum Indochina, OD700, 2 h (AID 1155);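 further: lysis reports solute entry through the parasite surface anion channel PSAC; channel blockers reduce lysis of infected cells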
Settings: P. falciparum Indochina infected erythrocytes, osmotic lysis OD700, called active from +8 up or from −8 down
Calls of active or inactive are those of the source.
Valid outcomes are listed here; reply with one: true = active, false = inactive

Worked examples, 2 compounds total:
Compound: O=C1O[C@H](c2ccccc2)[C@H](c2ccccc2)N2[C@H]1[C@@H](C(=O)N1CCN(c3ncccn3)CC1)[C@]1(C(=O)Nc3ccc(C#CC4(O)CCCCCC4)cc31)[C@H]2c1ccc(O)cc1
Group Label: false
//
Compound: C=C(COC)C(=O)CC[C@@H](OC(=O)c1ccccc1-c1ccccc1C(=O)O)c1ccccc1OCCO
Group Label: false

Prompt line: # outcome recorded in this test, key = COC(=O)[C@@]1(Cc2ccc(F)cc2)[C@H]2c3cc(C(=O)N4CCCC4)n(Cc4ccc(OC(F)(F)F)cc4)c3C[C@H]2CN1C(=O)c1ccccc1
Response line: false

Prompt line: What is the recorded call for this compound in the test? C=C(CCCC)C(=O)CC[C@H](OC(=O)c1ccccc1-c1ccccc1C(=O)O)c1cccc(OCCO)c1
Response line: false

Prompt line: I would be grateful if you could indicate the recorded call for COc1ccc([Si](C)(C)[C@H]2[C@H](CC(=O)N(CCO)Cc3ccccc3)O[C@@]3(C(=O)N(Cc4ccc(N5C(=O)c6cccc7cccc5c67)cc4)c4ccccc43)[C@@H]2C)cc1 .
Response line: false

Prompt line: What classification did COCCOC(=O)N1C(=O)[C@@]2(c3cc(C#CCCO)ccc31)[C@H](C(=O)N1CCN(c3ncccn3)CC1)[C@H]1C(=O)O[C@H](c3ccccc3)[C@H](c3ccccc3)N1[C@@H]2c1ccc(OCCO)cc1 end up with in this test?
Response line: false

Prompt line: Record lookup: outcome of this test for C=CCNC(=O)[C@@H]1[C@H]2C(=O)O[C@H](c3ccccc3)[C@H](c3ccccc3)N2[C@H](c2ccc(OCCO)cc2)[C@@]12C(=O)N(C(=O)OCCOC)c1ccccc12 ?
Response line: false

Prompt line: Query: recorded result category for COc1ccc([Si](C)(C)[C@@H]2[C@@H](CC(=O)N3CCC[C@H]3CO)O[C@]3(C(=O)N(Cc4cccc(N5C(=O)c6cccc7cccc5c67)c4)c4ccccc43)[C@H]2C)cc1 in this test
Response line: false

Prompt line: Recorded call for C=C(C(=O)CC[C@@H](OC(=O)c1cccnc1)c1cccc(OCCO)c1)C(C)C ?
Response line: false

Prompt line: Hello, I am checking results. What call was entered for COc1cc(Cc2cc3c(c(CCc4ccccc4)n2)[Si](C(C)C)(C(C)C)O[C@H]3c2ccccc2)cc(OC)c1OC ?
Response line: false

Prompt line: Test call, this compound: C=C[C@H](C)[C@@H](OC(=O)Nc1ccc(SC)cc1)c1ccc(OCCO)cc1
Response line: true

Prompt line: Recorded test call requested for C=CCC(OC(C)=O)[C@@H]1[C@@H](N(Cc2cccc3ccccc23)C(=O)c2ccc(C)cc2)c2cc(OCCCO)ccc2N1C(=O)Cc1ccc2ccccc2c1 (stereo partly drawn)
Response line: false

Prompt line: // return assay outcome for CO[C@H]1O[C@H](CO)[C@@H](OC(=O)CCc2ccccc2)[C@@H]2OC(=O)[C@@H](Cc3ccc4ccccc4c3)C/C=C/C[C@H](Cc3ccc4ccccc4c3)C(=O)O[C@@H]12
Response line: false

---

System: Noggin (protein binding on small-molecule microarray)
Test: Noggin binders on small-molecule microarray, primary screen, biochemical, 635/667 nm fluorescence (AID 1095);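 further: score merges 667 nm feature fluorescence with signal to noise over triplicate slides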
Settings: 635 nm fluorescence, higher = more signal
# binarize composite z-score: threshold -0.4 inclusive, high side y, low side n

Below are worked cases with known answers.
Compound: C=CC[C@H](O)c1ccc(O)c(F)c1
Measurement Target: Noggin (protein binding on small-molecule microarray)
Group Label: n
--
Compound: O=C1OCCC/C=C\[C@H]2OC34C=CCN(Cc5ccccc5)C(=O)[C@H]3N(CCO)C(=O)[C@@H]4C12 (some centres not stated)
Measurement Target: Noggin (protein binding on small-molecule microarray)
Group Label: y

Prompt line: Given CC(C)[Si]1(C(C)C)OCc2cc(-c3ccc(-c4ccc(Cl)c(Cl)c4)o3)nc(-c3ccc(Oc4ccccc4)cc3)c21 , state whether its composite z-score is at least -0.4.
Response line: n

Prompt line: Assess whether reported composite z-score for CCOC(=O)C[C@H]1[C@H](OC(=O)c2cc3ccccc3oc2=O)[C@@H](NC(=O)c2ccc(-c3ccccc3)cc2)c2cc(OCCCO)ccc2N1C(=O)Cc1ccc(OC)cc1 sits at -0.4 or higher.
Response line: y

Prompt line: Quick check, composite z-score >= -0.4? COCCOC(=O)N1C(=O)[C@@]2(c3cc(C#CC4=CCCCC4)ccc31)[C@H](C(=O)N1CCCCCCC1)[C@H]1C(=O)O[C@H](c3ccccc3)[C@H](c3ccccc3)N1[C@@H]2c1ccccc1OCCO
Response line: y

Prompt line: Exam item: decide whether the reported composite z-score for O=C1O[C@H](c2ccccc2)[C@H](c2ccccc2)N2[C@H]1[C@@H](C(=O)N1CCCCCCC1)[C@]1(C(=O)Nc3ccc(C#CCCO)cc31)[C@H]2c1ccc(O)cc1 is at least -0.4.
Response line: y

Prompt line: Threshold query (composite z-score >= -0.4) on COc1ccc(CCNC(=O)[C@@H]2c3ccccc3C(=O)N(C(C)C)[C@H]2c2ccc(CO)cc2)cc1
Response line: n

---

Molecular target: Concanavalin-A (Canavalia ensiformis) (UniProt P02866)
Sequence (P02866 whole entry, looked up): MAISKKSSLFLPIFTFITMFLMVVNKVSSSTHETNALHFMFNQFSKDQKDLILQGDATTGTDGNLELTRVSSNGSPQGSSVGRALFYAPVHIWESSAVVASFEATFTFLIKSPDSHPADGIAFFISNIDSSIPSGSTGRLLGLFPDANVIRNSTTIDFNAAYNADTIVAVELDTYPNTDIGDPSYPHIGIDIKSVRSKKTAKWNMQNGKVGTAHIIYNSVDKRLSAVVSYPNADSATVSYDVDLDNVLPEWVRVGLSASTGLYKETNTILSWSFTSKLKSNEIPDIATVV
Assay: ConA small-molecule binders, primary screen, artefact control for SMM control protein annotation, biochemical, small-molecule microarray, Alexa647 label, 635 nm (AID 1127);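 further: z combines 667 nm emission intensity with signal-to-noise across three replicate slides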
Settings: ConA-A647 binding fluorescence, higher = more signal
Measured composite z-score values are reported for all entries that follow.
# output: bare number, no unit

# annotated cases, reported composite z-score shown
Molecule: Cc1ccc(S[C@]2(C(=O)NC3CC3)CC(=O)N(C3Cc4ccccc4C3)[C@@H]2c2ccc(CO)cc2I)cc1
composite z-score: 0.0714

Molecule: COc1ccc([Si](C)(C)[C@H]2[C@H](CC(=O)N(CCO)Cc3ccccc3)O[C@@]3(C(=O)N(c4ccccc4)c4ccccc43)[C@@H]2C)cc1
composite z-score: 1.06

Molecule: CN(C)CCCC[C@@H]1NC(=O)[C@H]2C[C@@H](C(=O)NCCCCCCNC(=O)CS)[C@@H](c3cccc(OCCO)c3)N2C1=O
composite z-score: 0.847

Molecule: C=CC[C@]1(C(=O)NCCN2CCOCC2)N=C(c2ccc(OCCCO)cc2)O[C@H]1c1ccccc1
composite z-score: 0.469

Prompt line: composite z-score lookup needed for COC(=O)[C@]1(Cc2ccccc2N=[N+]=[N-])N=C(c2ccc(OCCCO)cc2)O[C@@H]1c1ccccc1CN=[N+]=[N-] , thanks.
Response line: 0.844

Prompt line: Please give the measured composite z-score for this molecule: [N-]=[N+]=Nc1ccccc1C[C@]1(C(=O)N2CCCCC2)N=C(c2ccc(OCCCO)cc2)O[C@H]1c1ccccc1
Response line: 1.18

Prompt line: Data request, read-out composite z-score, for COc1ccc([Si](C)(C)[C@H]2[C@H](CC(=O)N3CCC[C@H]3CO)O[C@@]3(C(=O)N(C)c4c(Br)cc(C)cc43)[C@@H]2C)cc1
Response line: 1.19

Prompt line: Which value of composite z-score has been reported for CCc1cccc(NC(=O)O[C@H]2[C@H](OC(=O)Nc3ccccc3-c3ccccc3)[C@H](OC(=O)Nc3ccccc3-c3ccccc3)[C@@H](OC)O[C@@H]2CO)c1 in the records?
Response line: 1.12

Prompt line: composite z-score for COC(=O)[C@@]1(Cc2ccc(F)cc2)[C@H]2c3cc(C(=O)N4CCCC4)n(CCc4c[nH]c5cc(F)ccc45)c3C[C@H]2CN1C(=O)c1ccccc1 ?
Response line: 1.03

Prompt line: Look at this molecule and give its reported composite z-score. CC(C)C[C@H]1NC(=O)CNC(=O)[C@@]23C(=O)N[C@@H](Cc4ccccc4)C2[C@H](C)[C@@]2(C)O[C@H]2C3/C=C/C/C=C\CNC1=O (some centres undefined)
Response line: 0.0947

Prompt line: Name the recorded composite z-score for O=C1O[C@H](c2ccccc2)[C@H](c2ccccc2)N2[C@H]1[C@@H](C(=O)N1CCCCCCC1)[C@]1(C(=O)Nc3ccc(C#CCCO)cc31)[C@H]2c1ccc(O)cc1 .
Response line: 1.17

Prompt line: Look up composite z-score: C=C[C@H](OC)[C@@H](O)c1ccc(OC)c(O)c1
Response line: -1.9

Prompt line: Need composite z-score, item O=C1OCC=C[C@H]2OC34C=CCN(Cn5nnc6ccccc65)C(=O)[C@H]3N(CCO)C(=O)[C@@H]4[C@@H]12 (some centres undefined)
Response line: -0.941

Prompt line: // lookup composite z-score for C=C1C(=O)C=C2CN(C(=O)c3ccccc3)[C@@](Cc3ccc(F)cc3)(C(=O)OC)[C@@H]12
Response line: 1.14

These entries and their values trace back to PubChem BioAssay.
